Every entry's value here was drawn from patent US11174268B2.

# maps each entry to its pIC50
molecular target: NaV1.5 (Homo sapiens (Human), UniProt Q14524); assay: Sodium Influx Assay (Flux), NaV1.5; conditions: read-out: Flux NaV1.5 IC50; Trex HEK293 cells, ANG2 dye, inactivated state
Sequence (Q14524 other isoform, or with tags, fused parts or gaps): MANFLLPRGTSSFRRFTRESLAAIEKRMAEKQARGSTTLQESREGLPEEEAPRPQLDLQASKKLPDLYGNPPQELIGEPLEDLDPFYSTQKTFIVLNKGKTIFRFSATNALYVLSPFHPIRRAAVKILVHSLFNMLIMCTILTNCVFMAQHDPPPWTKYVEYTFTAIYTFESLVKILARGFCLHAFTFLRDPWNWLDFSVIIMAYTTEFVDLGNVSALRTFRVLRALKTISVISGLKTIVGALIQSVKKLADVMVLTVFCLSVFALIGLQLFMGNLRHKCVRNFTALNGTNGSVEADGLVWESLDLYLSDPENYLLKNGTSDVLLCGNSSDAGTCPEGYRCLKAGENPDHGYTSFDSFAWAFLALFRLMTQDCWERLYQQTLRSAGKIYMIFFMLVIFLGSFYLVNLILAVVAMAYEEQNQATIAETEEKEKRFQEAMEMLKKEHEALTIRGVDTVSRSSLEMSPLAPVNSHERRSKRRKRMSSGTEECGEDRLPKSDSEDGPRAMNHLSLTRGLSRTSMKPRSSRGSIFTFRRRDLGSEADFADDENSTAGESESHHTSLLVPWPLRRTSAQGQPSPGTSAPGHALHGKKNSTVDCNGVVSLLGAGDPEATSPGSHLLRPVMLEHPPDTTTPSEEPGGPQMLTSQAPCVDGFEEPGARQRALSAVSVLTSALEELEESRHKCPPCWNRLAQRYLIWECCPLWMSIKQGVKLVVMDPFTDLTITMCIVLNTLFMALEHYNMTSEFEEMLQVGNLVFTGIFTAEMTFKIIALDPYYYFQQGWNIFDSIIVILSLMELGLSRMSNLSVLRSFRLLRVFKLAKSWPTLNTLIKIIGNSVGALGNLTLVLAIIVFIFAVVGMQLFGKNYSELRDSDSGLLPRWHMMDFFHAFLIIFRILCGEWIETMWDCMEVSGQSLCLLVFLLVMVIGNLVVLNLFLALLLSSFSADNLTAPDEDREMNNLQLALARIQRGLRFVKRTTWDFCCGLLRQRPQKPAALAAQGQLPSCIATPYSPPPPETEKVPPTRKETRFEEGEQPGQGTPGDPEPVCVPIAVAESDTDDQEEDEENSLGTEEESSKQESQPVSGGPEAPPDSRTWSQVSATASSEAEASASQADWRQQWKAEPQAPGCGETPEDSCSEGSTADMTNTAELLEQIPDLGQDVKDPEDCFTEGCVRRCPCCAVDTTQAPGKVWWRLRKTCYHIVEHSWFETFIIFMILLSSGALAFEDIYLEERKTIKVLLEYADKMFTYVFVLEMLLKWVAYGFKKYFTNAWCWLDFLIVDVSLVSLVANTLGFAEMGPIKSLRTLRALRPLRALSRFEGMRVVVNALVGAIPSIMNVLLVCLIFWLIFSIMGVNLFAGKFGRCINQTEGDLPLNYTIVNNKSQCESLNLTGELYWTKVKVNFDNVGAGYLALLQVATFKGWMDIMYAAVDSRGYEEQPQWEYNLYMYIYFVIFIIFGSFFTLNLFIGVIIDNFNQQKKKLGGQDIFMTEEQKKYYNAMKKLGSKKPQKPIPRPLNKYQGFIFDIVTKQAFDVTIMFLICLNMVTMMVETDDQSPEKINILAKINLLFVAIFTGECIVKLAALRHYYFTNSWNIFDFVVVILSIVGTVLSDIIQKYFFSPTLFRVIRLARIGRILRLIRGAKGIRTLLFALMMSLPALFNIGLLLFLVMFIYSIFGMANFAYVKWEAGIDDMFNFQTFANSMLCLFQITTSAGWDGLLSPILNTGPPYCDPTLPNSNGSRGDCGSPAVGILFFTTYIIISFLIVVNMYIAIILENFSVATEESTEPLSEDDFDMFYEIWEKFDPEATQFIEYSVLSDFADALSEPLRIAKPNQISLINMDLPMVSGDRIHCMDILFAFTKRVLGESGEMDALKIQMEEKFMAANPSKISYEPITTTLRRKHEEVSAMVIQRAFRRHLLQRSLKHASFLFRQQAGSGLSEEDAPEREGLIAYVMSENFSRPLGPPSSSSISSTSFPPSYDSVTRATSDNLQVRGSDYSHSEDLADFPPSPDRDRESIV
Quick note: pIC50 means taking -log10 of the concentration in moles per liter.

# count of solved cases: 5
Data request, read-out pIC50, for CC[C@H](Nc1cc(F)c(S(=O)(=O)Nc2ccncn2)cc1Cl)c1ccccc1Cl [Example 277, 2,2,2-trifluoroacetate]
5.03

Tell me the measured pIC50 of Cc1cccc(Cl)c1CNc1cc(F)c(S(=O)(=O)Nc2cscn2)cc1Cl [Example 226] , please.
4.95

Look up pIC50: O=S(=O)(Nc1nccs1)c1cc(Cl)c(NC2CCCc3ccncc32)cc1F (stereo not drawn) [Example 93, 2,2,2-trifluoroacetate]
5.07

Look at this molecule and give its reported pIC50. CC[C@H](Nc1cc(F)c(S(=O)(=O)Nc2cscn2)cc1Cl)c1ccccc1Cl [Example 222]
5.08

What measured pIC50 goes with C[C@H](Nc1cc(F)c(S(=O)(=O)Nc2cscn2)cc1Cl)c1cc(C2CC2)ccc1F [Example 146] ?
5.01

Read the next record carefully.
Entry under review: C[C@H](Nc1cc(F)c(S(=O)(=O)Nc2cscn2)cc1Cl)c1cc(O)ccc1F [Example 234] . Reported pIC50?
5.06

---

target: NaV1.6 (Homo sapiens (Human), UniProt Q9UQD0); assay: Sodium Influx Assay (Flux), NaV1.6; format: cell-based; details: Trex HEK293 cells, ANG2 dye, inactivated state;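 further: Tetracycline-induced cells, compounds applied for one hour at room temperature with modulators holding channels open, IC50 from percent inhibition of sodium influx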
Sequence (Q9UQD0 whole entry, looked up): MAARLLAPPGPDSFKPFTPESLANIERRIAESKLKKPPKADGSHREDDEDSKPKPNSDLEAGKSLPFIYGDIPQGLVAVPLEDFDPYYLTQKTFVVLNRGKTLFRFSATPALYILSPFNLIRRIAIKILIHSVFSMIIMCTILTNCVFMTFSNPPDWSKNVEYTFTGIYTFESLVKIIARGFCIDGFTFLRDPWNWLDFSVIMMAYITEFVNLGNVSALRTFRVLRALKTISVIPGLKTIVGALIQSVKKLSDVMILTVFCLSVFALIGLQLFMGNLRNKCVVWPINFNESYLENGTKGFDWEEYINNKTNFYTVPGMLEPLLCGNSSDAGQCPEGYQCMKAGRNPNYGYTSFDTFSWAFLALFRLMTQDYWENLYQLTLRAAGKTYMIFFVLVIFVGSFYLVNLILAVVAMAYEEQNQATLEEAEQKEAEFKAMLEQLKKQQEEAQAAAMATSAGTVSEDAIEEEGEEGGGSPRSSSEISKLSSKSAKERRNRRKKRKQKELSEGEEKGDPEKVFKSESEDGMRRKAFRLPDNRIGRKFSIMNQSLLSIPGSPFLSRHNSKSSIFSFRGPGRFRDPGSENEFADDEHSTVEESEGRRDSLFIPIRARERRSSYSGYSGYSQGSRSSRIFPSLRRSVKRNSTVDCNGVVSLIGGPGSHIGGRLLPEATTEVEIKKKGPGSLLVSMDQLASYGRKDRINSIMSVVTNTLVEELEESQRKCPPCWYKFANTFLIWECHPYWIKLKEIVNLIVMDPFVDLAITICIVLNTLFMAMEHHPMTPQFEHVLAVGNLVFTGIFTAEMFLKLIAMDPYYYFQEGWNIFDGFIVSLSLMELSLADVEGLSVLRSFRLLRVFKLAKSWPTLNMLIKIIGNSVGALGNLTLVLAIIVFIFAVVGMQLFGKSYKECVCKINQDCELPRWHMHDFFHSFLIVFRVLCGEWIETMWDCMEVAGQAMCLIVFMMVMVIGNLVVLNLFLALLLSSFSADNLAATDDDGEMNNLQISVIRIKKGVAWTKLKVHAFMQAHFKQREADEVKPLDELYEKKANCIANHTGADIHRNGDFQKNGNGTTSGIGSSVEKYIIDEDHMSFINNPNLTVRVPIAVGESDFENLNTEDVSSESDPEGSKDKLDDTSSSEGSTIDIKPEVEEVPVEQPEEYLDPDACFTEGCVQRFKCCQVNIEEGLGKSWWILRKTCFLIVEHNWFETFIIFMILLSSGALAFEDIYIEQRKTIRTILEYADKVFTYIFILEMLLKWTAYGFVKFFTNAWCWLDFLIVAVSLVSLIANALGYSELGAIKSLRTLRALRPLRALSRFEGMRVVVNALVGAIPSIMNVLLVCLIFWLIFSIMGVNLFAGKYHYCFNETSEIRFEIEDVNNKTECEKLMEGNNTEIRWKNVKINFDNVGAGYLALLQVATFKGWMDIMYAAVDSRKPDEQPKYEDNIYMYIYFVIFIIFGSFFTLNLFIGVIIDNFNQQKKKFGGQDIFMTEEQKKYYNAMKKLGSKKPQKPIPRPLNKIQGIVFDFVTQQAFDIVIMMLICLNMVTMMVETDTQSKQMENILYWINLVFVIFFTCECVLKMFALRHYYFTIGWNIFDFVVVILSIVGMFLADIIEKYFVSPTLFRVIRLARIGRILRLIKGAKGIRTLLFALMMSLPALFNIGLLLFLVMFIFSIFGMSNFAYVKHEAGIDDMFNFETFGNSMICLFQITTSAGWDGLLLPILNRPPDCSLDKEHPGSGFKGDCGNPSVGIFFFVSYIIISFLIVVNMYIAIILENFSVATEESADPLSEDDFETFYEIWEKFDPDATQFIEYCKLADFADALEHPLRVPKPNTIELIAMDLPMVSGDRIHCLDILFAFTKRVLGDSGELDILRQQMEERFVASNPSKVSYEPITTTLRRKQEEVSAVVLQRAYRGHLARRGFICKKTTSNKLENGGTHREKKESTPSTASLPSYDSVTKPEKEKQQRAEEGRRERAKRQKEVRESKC
Sequence (Q07699 whole entry partner, looked up): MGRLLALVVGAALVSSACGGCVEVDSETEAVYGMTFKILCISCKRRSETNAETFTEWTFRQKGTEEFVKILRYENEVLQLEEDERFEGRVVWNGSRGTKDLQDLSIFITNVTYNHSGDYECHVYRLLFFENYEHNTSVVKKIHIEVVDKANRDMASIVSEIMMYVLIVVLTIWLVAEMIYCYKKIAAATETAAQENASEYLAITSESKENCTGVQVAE
Structures can show the parent of a compound that is named as a salt.
compounds and their reported IC50
Give just the number in µM; leave the unit off.

Consider the reported IC50 for these compounds:
Sample C[C@H](Oc1cc(F)c(S(=O)(=O)Nc2nccs2)cc1Cl)c1cc(Cl)ccc1F — what was its IC50?
0.761

For O=S(=O)(Nc1cscn1)c1cc(Cl)c(NCc2cc(CCN3CCC3)ccc2F)cc1F [Example 262, formate] , what is its reported IC50?
1.42

Sample CN1CC2(C1)CN(Cc1cccc(Cl)c1CNc1cc(F)c(S(=O)(=O)Nc3cscn3)cc1Cl)C2 [Example 292, 2,2,2-trifluoroacetate] — what was its IC50?
0.624

IC50 for C[C@@H](c1cccc(F)c1CNc1cc(F)c(S(=O)(=O)Nc2cscn2)c(F)c1)N1CCC1 [Example 278, formate] ?
0.187

Further cases:
Tell me the measured IC50 of CN(Cc1cccc(F)c1CNc1cc(F)c(S(=O)(=O)Nc2ccsn2)c(F)c1)C(C)(C)C [Example 189, formate] , please.
0.522

What value of measured IC50 is listed for C[C@H](Nc1ccc(S(=O)(=O)Nc2ccncn2)cc1C(F)(F)F)c1cc(F)ccc1F ?
0.896

Look up IC50: O=S(=O)(Nc1cscn1)c1cc(Cl)c(OC2CCc3c2cccc3C(F)(F)F)cc1F (stereo not shown)
30

---

biological target: NaV1.6 (Homo sapiens (Human), UniProt Q9UQD0); assay: Electrophysiological Assay (EP), patch voltage clamp, NaV1.6; format: cell-based; settings: HEK-293 cells, whole-cell patch clamp;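 further: sodium current recorded at ambient temperature, channels held inactivated then briefly repolarized to −150 mV for 20 ms before a test pulse, control currents in 0.5% DMSO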
Sequence (Q9UQD0 whole entry): as the sequence (Q9UQD0 whole entry, looked up) above
Counter-ions that a name gives are not always drawn.
Reported log10 of IC50 is given for each of the following molecules.
Short version: log10 scale, IC50, nM.

Reference set (8 entries):
Quick one: log10 of IC50 for O=S(=O)(Nc1ccon1)c1c(F)cc(NCc2c(F)cccc2CN2CCC2)cc1F [Example 204, 2,2,2-trifluoroacetate] ?
1.91

# get_value(readout='log10 of IC50', item= C[C@H](Nc1cc(F)c(S(=O)(=O)Nc2nccs2)cc1Cl)c1ccccc1Cl )
1.18

Find the recorded log10 of IC50 belonging to Cc1c(NCc2ccccc2CN2CCC2)cc(F)c(S(=O)(=O)Nc2ccncn2)c1F [Example 310, 2,2,2-trifluoroacetate] and report it.
1.04

Which log10 of IC50 value is on record for Cc1cc(S(=O)(=O)Nc2ccncn2)c(F)cc1N[C@@H](C)c1cc(Cl)ccc1F ?
1.40

Given the entry O=S(=O)(Nc1nccs1)c1cc(Cl)c(NCc2cccc3ccncc23)cc1F , report its measured log10 of IC50.
0.60

// query log10 of IC50 value for entry Cc1c(NCc2c(F)cccc2CN2CCC2)cc(F)c(S(=O)(=O)Nc2cscn2)c1F [Example 304, 2,2,2-trifluoroacetate]
0.30

Any idea what log10 of IC50 was measured for C[C@H](Nc1cc(F)c(S(=O)(=O)Nc2cccc(F)n2)cc1Cl)c1ccccc1F ?
2.41

Which measured log10 of IC50 value corresponds to CN1CC(Oc2cccc(F)c2CNc2cc(F)c(S(=O)(=O)Nc3cscn3)c(F)c2)C1 [Example 326, formate] ?
1.95

---
Find the recorded log10 of IC50 belonging to O=S(=O)(Nc1nccs1)c1cc(Cl)c(NC2(c3ccccc3F)CCC2)cc1F and report it.
2.14

Would you kindly share the measured log10 of IC50 for O=S(=O)(Nc1cscn1)c1c(F)cc(NCc2c(Cl)cccc2CN2CC(F)C2)cc1F ?
2.40

Item C[C@H](Oc1cc(F)c(S(=O)(=O)Nc2nccs2)cc1Cl)c1ccccc1 has what recorded log10 of IC50?
2.13
